Each entry below carries its measured Toxicity Assay Z-score, system: Clone V cells.
Form rule: numeric answer, no unit written next to it.

Request the reported Toxicity Assay Z-score associated with `COc1ccc2c(c1)CC[C@@H]1[C@@H]2CC[C@]2(C)[C@@H](NCCCCCCN3C(=O)C=CC3=O)CC[C@@H]12`
0.36

// lookup Toxicity Assay Z-score for CCc1cc(Nc2nccc(-c3c(-c4ccc(OC)c(C(=O)Nc5c(F)cccc5F)c4)nc4ccccn34)n2)c(OC)cc1N1CCC(N2CCN(S(C)(=O)=O)CC2)CC1 [GSK1904529A]
0.11

// query Toxicity Assay Z-score value for entry CC(C)(C)c1nc(-c2cccc(NS(=O)(=O)c3c(F)cccc3F)c2F)c(-c2ccnc(N)n2)s1.CS(=O)(=O)O [Dabrafenib mesylate]
-0.91

Look at this molecule and give its reported Toxicity Assay Z-score. `CCCCCCCCCCCCSc1nc2c([nH]1)c(=O)n(C)c(=O)n2C`
-0.85

----------
Target: FGF14:Nav1.6 C-tail complex (Homo sapiens, UniProt Q92915+Q9UQD0)
Construct: polymerase chain reaction (PCR) amplification of the FGF14 open reading frame (nt 1–855); C-terminal fragment of Nav1.6 (amino acids 1763–1976) fused with CD4ΔC-tail (amino acids 1–395); expressed in transfected cells
Sequence (Q92915 1-252 isoform Q92915-2): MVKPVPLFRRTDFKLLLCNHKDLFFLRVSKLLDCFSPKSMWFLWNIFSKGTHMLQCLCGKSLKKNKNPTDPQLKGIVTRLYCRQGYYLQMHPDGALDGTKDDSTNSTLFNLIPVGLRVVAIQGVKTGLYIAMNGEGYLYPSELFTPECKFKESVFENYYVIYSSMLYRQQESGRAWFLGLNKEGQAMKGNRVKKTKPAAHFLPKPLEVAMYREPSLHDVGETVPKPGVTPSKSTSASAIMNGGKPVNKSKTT
Sequence (Q9UQD0 1763-1976 limits assumed): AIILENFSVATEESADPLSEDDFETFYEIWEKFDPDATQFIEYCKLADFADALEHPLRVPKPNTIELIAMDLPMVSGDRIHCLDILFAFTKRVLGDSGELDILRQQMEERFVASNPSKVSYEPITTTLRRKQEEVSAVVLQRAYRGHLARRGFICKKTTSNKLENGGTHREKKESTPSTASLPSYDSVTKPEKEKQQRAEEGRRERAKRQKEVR
Experiment: Split-luciferase complementation assay (LCA) in Clone V double stable HEK293 cells
Assay type: cell-based
Conditions: CC_NCI screening; average of Set 1 and Set 2; normalized to 0.3% DMSO controls
Where a name gives a salt, the structure may show the parent alone.
Assign class by Split Luciferase Assay %Lum Avg: not lower than 60% means label 1; lower than 60% means label 0.

Could you tell me if the measured Split Luciferase Assay %Lum Avg of CCn1c(-c2nonc2N)nc2cnc(Oc3cccc(NC(=O)c4ccc(OCCN5CCOCC5)cc4)c3)cc21 [GSK 269962A] reaches 60% or more?
label 0

Hi, just wondering whether CNC(=O)c1ccccc1Sc1ccc2c(/C=C/c3ccccn3)n[nH]c2c1 [Axitinib] shows Split Luciferase Assay %Lum Avg of 60% or higher.
label 0

Answer whether Split Luciferase Assay %Lum Avg of `Nc1nc2nc[nH]c2c(=S)[nH]1` is greater than or equal to 60%.
label 1

hey, is Split Luciferase Assay %Lum Avg for this one >= 60%? `CC(=O)Nc1cccc(-n2c(=O)n(C3CC3)c(=O)c3c(Nc4ccc(I)cc4F)n(C)c(=O)c(C)c32)c1`
label 1

Hi, just wondering whether `Cc1cc(N2CCOCC2)cc2[nH]c(-c3c(NC[C@@H](O)c4cccc(Cl)c4)cc[nH]c3=O)nc12` shows Split Luciferase Assay %Lum Avg of 60% or higher.
label 0

Kindly determine if Split Luciferase Assay %Lum Avg recorded for COc1cccc2c1C(=O)c1c(O)c3c(c(O)c1C2=O)C[C@@](O)(C(=O)CO)C[C@@H]3O[C@H]1C[C@H](N)[C@H](O)[C@H](C)O1 [Doxorubicin hydrochloride] is above or exactly 60%.
label 0

# bool: Split Luciferase Assay %Lum Avg of COc1cc(Nc2c(C#N)cnc3cc(OCCCN4CCN(C)CC4)c(OC)cc23)c(Cl)cc1Cl [Bosutinib] >= 60%
label 0

Could you please find out whether `O=C(O)C(=O)O.[NH-][C@@H]1CCCC[C@H]1[NH-].[Pt+2]` has Split Luciferase Assay %Lum Avg that meets 60% or exceeds it?
label 1

In plain terms: is recorded Split Luciferase Assay %Lum Avg at least 60% for COC(=O)C[C@](O)(CCCC(C)(C)O)C(=O)O[C@@H]1C(OC)=C[C@]23CCCN2CCc2cc4c(cc2[C@H]13)OCO4 [Omacetaxine mepesuccinate] ?
label 0

Does Split Luciferase Assay %Lum Avg meet or surpass 60% for `N#C/C(=C/c1ccc(O)c(O)c1)C(=O)NCc1ccccc1` ?
label 1

Does Split Luciferase Assay %Lum Avg meet or surpass 60% for C[C@]12CC[C@@H]3c4ccc(O)cc4C[C@@H](CCCCCCCCC[S+]([O-])CCCC(F)(F)C(F)(F)F)[C@H]3[C@@H]1CC[C@@H]2O (some centres unmarked) ?
label 1

Determine whether this compound has Split Luciferase Assay %Lum Avg no lower than 60%: `COC1=C2C[C@@H](C)C[C@H](OC)[C@H](O)[C@@H](C)/C=C(\C)[C@H](OC(N)=O)[C@@H](OC)/C=C\C=C(/C)C(=O)NC(=CC1=O)C2=O`
label 1

In plain terms: is recorded Split Luciferase Assay %Lum Avg at least 60% for COc1cc(Nc2c(C#N)cnc3cc(OCCCN4CCN(C)CC4)c(OC)cc23)c(Cl)cc1Cl [BOSUTINIB] ?
label 1

Kindly determine if Split Luciferase Assay %Lum Avg recorded for `CO[C@H]1C(=O)[C@]2(C)[C@@H](OC)C[C@H]3OC[C@@]3(OC(C)=O)[C@H]2[C@H](OC(=O)c2ccccc2)[C@]2(O)C[C@H](OC(=O)[C@H](O)[C@@H](NC(=O)OC(C)(C)C)c3ccccc3)C(C)=C1C2(C)C` is above or exactly 60%.
label 1

Does Split Luciferase Assay %Lum Avg meet or surpass 60% for CC[C@]1(O)C[C@H]2CN(CCc3c([nH]c4ccccc34)[C@@](C(=O)OC)(c3cc4c(cc3OC)N(C=O)[C@H]3[C@@](O)(C(=O)OC)[C@H](OC(C)=O)[C@]5(CC)C=CCN6CC[C@]43[C@@H]65)C2)C1 [Vincristine sulfate] ?
label 1

Exam item: decide whether the reported Split Luciferase Assay %Lum Avg for CO[C@H]1C[C@@H]2CC[C@@H](C)[C@@](O)(O2)C(=O)C(=O)N2CCCC[C@H]2C(=O)O[C@H]([C@H](C)C[C@@H]2CC[C@@H](OC(=O)C(C)(CO)CO)[C@H](OC)C2)CC(=O)[C@H](C)/C=C(\C)[C@@H](O)[C@@H](OC)C(=O)[C@H](C)C[C@H](C)/C=C/C=C/C=C/1C [Temsirolimus] is at least 60%.
label 0

In plain terms: is recorded Split Luciferase Assay %Lum Avg at least 60% for `COc1cc2/c(=N/c3ccc(Br)cc3F)nc[nH]c2cc1OCC1CCN(C)CC1` ?
label 1

Is Split Luciferase Assay %Lum Avg for CC(C)(C)c1nc(-c2cccc(NS(=O)(=O)c3c(F)cccc3F)c2F)c(-c2ccnc(N)n2)s1.CS(=O)(=O)O [Dabrafenib mesylate] at or above 60%?
label 1

Does Split Luciferase Assay %Lum Avg meet or surpass 60% for `Cc1ccc(NC(=O)c2ccc(CN3CCN(C)CC3)cc2)cc1Nc1nc(-c2cccnc2)cs1` ?
label 0

hey, is Split Luciferase Assay %Lum Avg for this one >= 60%? `Oc1ccc(-c2nc(-c3ccncc3)c(-c3ccc(F)cc3)[nH]2)cc1`
label 1

Please indicate if the recorded Split Luciferase Assay %Lum Avg for `Cc1ccc(C(=O)Nc2ccc(CN3CCN(C)CC3)c(C(F)(F)F)c2)cc1C#Cc1cnc2cccnn12` meets or exceeds 60%.
label 0

Threshold query (Split Luciferase Assay %Lum Avg >= 60%) on O=C(NOCC1CC1)c1ccc(F)c(F)c1Nc1ccc(I)cc1Cl [CI 1040, reference compound]
label 0

Would you say O=S(=O)(NCCNC/C=C/c1ccc(Br)cc1)c1cccc2cnccc12 [H-89, reference compound] shows Split Luciferase Assay %Lum Avg at minimum 60%?
label 0

Assess whether reported Split Luciferase Assay %Lum Avg for Cc1cn(-c2cc(NC(=O)c3ccc(C)c(Nc4nccc(-c5cccnc5)n4)c3)cc(C(F)(F)F)c2)cn1 [NILOTINIB] sits at 60% or higher.
label 1

----------
Tested on: Clone V cells
Conditions: human, 16 h, 30 µM
Counter-ions that a name gives are not always drawn.
Answer each item with its documented Toxicity Assay Z-score (CTB cell viability).

Can you look up the measured Toxicity Assay Z-score (CTB cell viability) of `CS(=O)(=O)OCCCCOS(C)(=O)=O` for me?
0.92

# input compound: NCC(=O)CCC(=O)O [Aminolevulinic acid hydrochloride] ; wanted: its Toxicity Assay Z-score (CTB cell viability)
0.31

What does the record list as Toxicity Assay Z-score (CTB cell viability) for CC(=O)[C@]1(O)Cc2c(O)c3c(c(O)c2[C@@H](O[C@H]2C[C@H](N)[C@H](O)[C@H](C)O2)C1)C(=O)c1ccccc1C3=O [Idarubicin hydrochloride] ?
1.79

Requested read-out: Toxicity Assay Z-score (CTB cell viability). Entry: `NC(=O)c1ccc(N(C(N)=O)c2c(F)cccc2F)nc1-c1ccc(F)cc1F`
0.75

Quick check: Toxicity Assay Z-score (CTB cell viability) of `CC1(C)CNc2cc(NC(=O)c3cccnc3NCc3ccncc3)ccc21` ?
-0.04

// Toxicity Assay Z-score (CTB cell viability) lookup, key: Nc1ccn([C@@H]2O[C@H](CO)[C@@H](O)C2(F)F)c(=O)n1 [Gemcitabine hydrochloride]
2.40

Dear colleague, I am looking for the recorded Toxicity Assay Z-score (CTB cell viability) of the following compound: `O=c1[nH]cc(F)c(=O)[nH]1`
0.61

I am curious: what Toxicity Assay Z-score (CTB cell viability) value has been reported for `Cc1[nH]c2ccccc2c1CCNCc1ccc(/C=C/C(=O)NO)cc1` ?
0.78

Which measured Toxicity Assay Z-score (CTB cell viability) value corresponds to `COc1cc(F)c(F)c(Nc2ccc(I)cc2F)c1NS(=O)(=O)C1(C[C@H](O)CO)CC1` ?
0.34

Entry under review: Clc1ccc(C(c2ccccc2Cl)C(Cl)Cl)cc1 (centres unmarked) . Reported Toxicity Assay Z-score (CTB cell viability)?
-0.85

Tell me the measured Toxicity Assay Z-score (CTB cell viability) of Nc1ncn([C@H]2C[C@H](O)[C@@H](CO)O2)c(=O)n1 [Decitabine, reference compound] , please.
0.87

Consider the compound `CN(C)c1nc(N(C)C)nc(N(C)C)n1` and give its measured Toxicity Assay Z-score (CTB cell viability).
0.43

What measured Toxicity Assay Z-score (CTB cell viability) goes with `CC(C)Cn1cnc2c(N)nc3ccccc3c21` ?
1.03

Entry COc1cc([C@@H]2c3cc4c(cc3[C@@H](O[C@@H]3O[C@@H]5CO[C@@H](c6cccs6)O[C@H]5[C@H](O)[C@H]3O)[C@H]3COC(=O)[C@H]23)OCO4)cc(OC)c1O [Teniposide] has what Toxicity Assay Z-score (CTB cell viability)?
0.66

Reported Toxicity Assay Z-score (CTB cell viability), compound Nc1ccn([C@@H]2O[C@H](CO)[C@@H](O)[C@@H]2O)c(=O)n1 [Cytarabine hydrochloride] : ____
1.12

# get_value(readout='Toxicity Assay Z-score (CTB cell viability)', item= `CS(=O)(=O)c1ccc(C(=O)Nc2ccc(Cl)c(-c3ccccn3)c2)c(Cl)c1` )
0.95

Return reported Toxicity Assay Z-score (CTB cell viability); argument: `Nc1ncn([C@@H]2O[C@H](CO)[C@@H](O)[C@H]2O)c(=O)n1`
0.41

// Toxicity Assay Z-score (CTB cell viability) lookup, key: `Cc1c[nH]c(-c2cnc(NCCNc3ccc(C#N)cn3)nc2-c2ccc(Cl)cc2Cl)n1`
1.07

Recorded Toxicity Assay Z-score (CTB cell viability) for `O=c1cc(N2CCOCC2)oc2c(-c3ccccc3)cccc12` , please?
-0.14

Find the recorded Toxicity Assay Z-score (CTB cell viability) belonging to `COc1c2occc2cc2ccc(=O)oc12` and report it.
1.23

Look up Toxicity Assay Z-score (CTB cell viability) for this compound: CC[C@]1(O)C[C@@H]2CN(CCc3c([nH]c4ccccc34)[C@@](C(=O)OC)(c3cc4c(cc3OC)N(C)[C@H]3[C@@](O)(C(=O)OC)[C@H](OC(C)=O)[C@]5(CC)C=CCN6CC[C@]43[C@@H]65)C2)C1 [Vinblastine sulfate]
1.05

Requested read-out: Toxicity Assay Z-score (CTB cell viability). Entry: CC/C(=C(\c1ccccc1)c1ccc(OCCN(C)C)cc1)c1ccccc1 [Tamoxifen citrate]
-7.92

// returns reported Toxicity Assay Z-score (CTB cell viability) for input CC(=O)O[C@]1(C(C)=O)CC[C@H]2[C@@H]3C=C(C)C4=CC(=O)CC[C@]4(C)[C@H]3CC[C@@]21C [Megestrol acetate]
0.79

Given `CCCCC(=O)OCC(=O)[C@]1(O)Cc2c(O)c3c(c(O)c2[C@@H](O[C@H]2C[C@H](NC(=O)C(F)(F)F)[C@H](O)[C@H](C)O2)C1)C(=O)c1c(OC)cccc1C3=O` , state its recorded Toxicity Assay Z-score (CTB cell viability).
0.60

Form field: reported Toxicity Assay Z-score (CTB cell viability) of `CC(=O)O[C@H]1C(=O)[C@@]2(C)[C@H]([C@H](OC(=O)c3ccccc3)[C@]3(O)C[C@H](OC(=O)[C@H](O)[C@@H](NC(=O)c4ccccc4)c4ccccc4)C(C)=C1C3(C)C)[C@]1(OC(C)=O)CO[C@@H]1C[C@@H]2O`
1.59

Would you mind telling me what Toxicity Assay Z-score (CTB cell viability) value was observed for `C[C@@H](CN1CC(=O)NC(=O)C1)N1CC(=O)NC(=O)C1` ?
2.09

Param item = `O=C(NCCCNc1nc(Nc2cccc(NC(=O)N3CCCC3)c2)ncc1I)c1cccs1` ; retrieve measured Toxicity Assay Z-score (CTB cell viability).
0.47

Given `Oc1cccc(-c2nc(N3CCOCC3)c3oc4ncccc4c3n2)c1` , state its recorded Toxicity Assay Z-score (CTB cell viability).
2.64

Record request: Toxicity Assay Z-score (CTB cell viability) value, item CN(C)C[C@@H]1CCn2cc(c3ccccc32)C2=C(C(=O)NC2=O)c2cn(c3ccccc23)CCO1 [LY 333531, reference compound]
0.14

I have this compound here, CNNCc1ccc(C(=O)NC(C)C)cc1 [Procarbazine hydrochloride] , and I need its recorded Toxicity Assay Z-score (CTB cell viability).
1.21

I would be grateful if you could share the reported Toxicity Assay Z-score (CTB cell viability) for `CN(C)/N=N/c1[nH]cnc1C(N)=O` .
0.82

Find the recorded Toxicity Assay Z-score (CTB cell viability) belonging to `Sc1ncnc2nc[nH]c12` and report it.
0.87

Measured values drawn from paper PMC6858373 for this set.
